system: BHK; assay: Modulation of CFTR F508 deletion mutant expressed in BHK cells assessed as increase in forskolin-stimulated iodine influx at 10 uM after 5 mins […] (reference value: 1.4 +/- 0.4 nM/s); format: cell-based
Collected Activity values appear next to each entry.
All answers are understood in nM/s, so give the number only.

Below: 2 compounds and their reported Activity.
>>> endpoint_result("Cc1ccc(O)c(-c2cc(-c3ccccc3)[nH]n2)c1")
9.9
>>> endpoint_result("Cc1ccc(O)c(-c2cc(-c3ccc(N=[N+]=[N-])cc3)[nH]n2)c1")
5.1

Okay, next one:
If you can, please state the reported Activity value of Cc1ccc(O)c(-c2cc(-c3ccc(N)cc3)[nH]n2)c1 .
5.1

The origin of these recorded values is ChEMBL document CHEMBL1938362.
